- study_system: IL-17RA/IL17RC dimerization induced by IL-17A (Homo sapiens)
- Sequence (Q16552 24-155): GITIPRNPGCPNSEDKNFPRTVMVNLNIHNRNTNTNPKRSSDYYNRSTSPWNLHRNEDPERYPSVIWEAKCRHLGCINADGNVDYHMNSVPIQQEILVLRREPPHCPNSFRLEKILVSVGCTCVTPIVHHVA
- protocol: IL-17RA/IL17RC dimerization assay in response to IL-17A (PathHunter Cytokine Receptor Assay)
- Format: cell-based
- condition: IL-17A at EC80; read-out: IC50 in IL-17RA/IL7RC dimerization assay
pIC50: −log10 of the molar value. Residues, ends and D or L forms follow the SMILES beside them.
quantity_kind: pIC50

compound="CC[C@H](C)[C@H](NC(C)=O)C(=O)N[C@@H](Cc1c[nH]cn1)C(=O)N[C@H](C(=O)N[C@H](C(=O)N[C@H](C(=O)N1CCC[C@H]1C(=O)N[C@@H](C)C(=O)N[C@@H](CC(=O)O)C(=O)N[C@@H](CC(C)C)C(=O)N[C@@H](Cc1c[nH]c2ccccc12)C(=O)N[C@@H](CC(=O)O)C(=O)N[C@@H](Cc1c[nH]cn1)C(=O)N[C@H](C(=O)N[C@@H](CC(N)=O)C(=O)N[C@@H](CCCCN)C(N)=O)[C@@H](C)CC)[C@@H](C)CC)[C@@H](C)O)C(C)C [SEQ ID NO: 209] (Ac-IHVTIPADLWDHINK-NH2)" result="> 5.00"

Note: attention shifts to another entry.
Input line: Jot down pIC50 (IL-17RA/IL17RC dimerization induced by IL-17A (Homo sapiens)) of CC[C@H](C)[C@H](NC(C)=O)C(=O)N[C@@H](Cc1c[nH]cn1)C(=O)N[C@H](C(=O)N[C@H](C(=O)N[C@H](C(=O)N1CCC[C@H]1C(=O)NCC(=O)N[C@@H](CC(=O)O)C(=O)N[C@@H](CC(C)C)C(=O)N[C@@H](Cc1c[nH]c2ccccc12)C(=O)N[C@@H](CC(=O)O)C(=O)N[C@@H](Cc1c[nH]c2ccccc12)C(=O)N[C@H](C(=O)N[C@@H](CC(N)=O)C(=O)N[C@@H](CCCCN)C(N)=O)[C@@H](C)CC)[C@@H](C)CC)[C@@H](C)O)C(C)C [SEQ ID NO: 192] (Ac-IHVTIPGDLWDWINK-NH2) .
Output line: > 5.00

---

- protocol: Permeability test across stratified human corneal epithelial cells
- Format: in vitro ADME
- condition: Permeability (Papp)
- Procedure: The objective of this study was to evaluate the apparent permeability coefficient (Papp) value of the peptides across stratified human corneal epithelial cells. All peptides were tested at 50 μM in duplicate. In particular, human corneal epithelial cells (hCEPIC) were stratified on Transwell cell culture inserts (Corning, N.Y., USA). […] Each aliquot collected was analyzed by HPLC instrument (Knauer) equipped with C18 Vertex Plus Column (Knauer) thermostatically controlled at 40° C. […]
Residues, ends and D or L forms follow the SMILES beside them.
quantity_kind: Papp (×10⁻⁶ cm/s)
Answer format: numeric, ×10⁻⁶ cm/s implied, no suffix.

compound="CC[C@H](C)[C@H](NC(C)=O)C(=O)N[C@@H](Cc1c[nH]cn1)C(=O)N[C@H](C(=O)N[C@H](C(=O)N[C@H](C(=O)N1CCC[C@H]1C(=O)N[C@@H](C)C(=O)N[C@@H](CC(=O)O)C(=O)N[C@@H](CC(C)C)C(=O)N[C@@H](Cc1c[nH]c2ccccc12)C(=O)N[C@@H](CC(=O)O)C(=O)N[C@@H](Cc1c[nH]c2ccccc12)C(=O)N[C@H](C(=O)N[C@@H](CCCNC(=N)N)C(=O)N[C@@H](CCCNC(=N)N)C(N)=O)C(C)C)[C@@H](C)CC)[C@@H](C)O)C(C)C [SEQ ID NO: 14] (Ac-IHVTIPADLWDWVRR-NH2)" quantitative_result=28.9

Shift focus to the following entry.
Input line: Let me know recorded Papp for CC[C@H](C)[C@H](NC(=O)[C@H](CCC(N)=O)NC(=O)[C@@H](NC(=O)[C@H](Cc1c[nH]cn1)NC(=O)[C@@H](NC(C)=O)C(C)C)C(C)C)C(=O)N1CCC[C@H]1C(=O)N[C@@H](C)C(=O)N[C@@H](CC(=O)O)C(=O)N[C@@H](CC(C)C)C(=O)N[C@@H](Cc1c[nH]c2ccccc12)C(=O)N[C@@H](CCC(=O)O)C(=O)N[C@@H](Cc1c[nH]c2ccccc12)C(=O)N[C@H](C(=O)N[C@@H](CCCNC(=N)N)C(=O)N[C@@H](CCCNC(=N)N)C(N)=O)C(C)C [SEQ ID NO: 113] (Ac-VHVQIPADLWEWVRR-NH2) , thanks.
Output line: 76.8
